ASSAY_NOTES: physchem
Format: physicochemical
Protocol: Fluorescence measurements were recorded with a Varian Cary Eclipse fluorescence spectrophotometer. […] Solutions were measured in regular 90° configuration. […] Uncorrected excitation and emission spectra were recorded for each sample. […] The modified dye is sensitive over the same range as HPTS. […] The second hydroxyl group causes DHD to be sensitive over an extended range with two dissociation constants calculated to be pka1,app=7.03±0.02 and pka1,app=9.05±0.02 under these conditions.
VALUE_TYPE: pKa

Query: Please supply the value of reported pKa for the item C=C(C)C(=O)Oc1cc(O)c2ccc3c(S(=O)(=O)O)cc(S(=O)(=O)O)c4ccc1c2c34
Response: 7.61

Query: Fill in reported pKa for this entry: O=S(=O)([O-])c1cc(O)c2ccc3c(S(=O)(=O)[O-])cc(S(=O)(=O)[O-])c4ccc1c2c34.[Na+].[Na+].[Na+] [HPTS, trisodium salt]
Response: 7.72
